Reference source: patent US20030232009A1

- EXPERIMENTAL_TARGET: T1, Macaque 46 mer peptide (RB exon of macaque CD45RB) (macaque)
- T1 construct: synthetic peptide
- T1 peptide: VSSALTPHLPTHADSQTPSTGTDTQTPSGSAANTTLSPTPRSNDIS
- EXPERIMENTAL_PROTOCOL: recombinant antibody on peptide
TEST_READOUT: binding result

Report binding result for AB-CD45RB-XG2-439 (antibody, human IgG2, V domains shown, recombinant human IgG2 kappa; also called sc439) VH: QVQLVESGGGVVQPGRSLRLSCAASGFTFSNYGMHWVRQAPGKGLEWVAVIWYDGSKKFYADSVKGRFTISRDNSKNMQYLQMDSLRAEDTAVYYCARGGGDFDYWGQGILVTVSS VL: EIVMTQSPATLSVSPGERATLSCRASQNLSGKYLAWYQQKPGQAPSRLIYGTSTRATGVPARFSGSGSGTEFTLTISSLQSEDSAVYYCQQYNNWPPLTFGGGTKVEIK please.
no binding

And what about the binder AB-CD45RB-XG2-662 (antibody, human IgG2, V domains shown, recombinant human IgG2 kappa; also called sc662) VH: QVQLVESGGDLVKPGGSLRLSCAASGFSFSGYYLSWIRQAPGKGLEWVSYISLSGSFIKYADSVKGRFTISRDNAKKTLHLQMNSLRAEDTAVYYCARRTGTTTVFDYWGQGTLVTVSS VL: EVVMTQSPATLSVSPGERATLSCRASQSVNSNLAWYQQRPGQAPRLLIYGASTRVTGIPARFSGSGSGTEFTLTISSLQSEDFAVYYCQQYNNWPLTFGGGTKVEIK ?
no binding

Now give it for AB-CD45RB-XG2-525 (antibody, human IgG2, V domains shown, recombinant human IgG2 kappa; also called sc525) VH: QVQLVESGGGVVQPGRSLRVSCAASGFTFSNYGMHWVRQAPGKGLEWVAVIWYDGSKKFYADSVKGRFTISRDNSQNTLSLQMSSLRAEDTAVYYCARGGGDFDFWGQGTLVTVSS VL: KIVMTQSPATLSVSPGERATLSCRASQSLSGSYLAWYQQRPGQAPRLLIYGASTRATGIPARFSGSGSGTEFTLTISSLQSEDFAVYYCQQYNKWPPLTFGGGTKVEIK too.
no binding
